Test system: HL-60(TB) leukemia
Assay: NCI tumour cell line growth inhibition, 48 h
Could you please report measured TGI for the items listed next?

Report TGI for every entry below.
1. Cc1cc(C)nc(SC2=C(Nc3cccc(Cl)c3)C(=O)N(Cc3ccccc3)C2=O)n1
2. CO[C@H](C(=O)N[C@@H](CCCCNC(=O)OCc1ccccc1)C(=O)OC(C)(C)C)[C@@H]1Cc2cc3cc(OC4CC(OC5CC(O)C(O)C(C)O5)C(O)C(C)O4)c(C)c(O)c3c(O)c2C(=O)[C@H]1OC1CC(OC2CC(OC3CC(C)(O)C(O)C(C)O3)C(O)C(C)O2)C(O)C(C)O1 (stereo partly specified)

Response given:
> 170 µM
5.92 µM

Report TGI for every entry below.
1. Cc1n[nH]c(=O)n1/N=C/c1cccnc1
2. CO[C@H](c1ccccc1)[C@H](O)[C@](O)(c1ccccc1)P(=O)(OC)OC
3. O=S1c2ccc(Cl)cc2CC(SSC2Cc3cc(Cl)ccc3S(=O)c3ccccc32)c2ccccc21 (stereo unspecified)

Response given:
1. > 100 µM
2. > 100 µM
3. > 100 µM

Challenge: API: value(readout=TGI, system=HL-60(TB) leukemia) for record `N#CC(C#N)=C1CCCCc2ccc([N+](=O)[O-])cc21`
Response given: > 100 µM
